Test system: RARg homodimer (NR concentration 270 nM)
test name: PBM binding z-score (relative to random genomic background probes); higher = stronger binding; sequences stand for … in GC…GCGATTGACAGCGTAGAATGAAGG
What PBM binding z-score was measured for each of the following?
Give the figure only, with no unit attached.

Challenge: # query: PBM binding z-score of entry "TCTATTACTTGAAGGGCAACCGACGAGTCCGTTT"
Response given: 0.75

Challenge: Moving on to "TCGAGTACGTTAGGGGCATTCAGAATGGCGTCGA"
Response given: -0.0328

Challenge: Moving on to "CGCCAAAGTTCAAGGTAACGTAACAGAAAGCAGC"
Response given: 5.94

Challenge: Moving on to "CCTAGCAGGCCAGGGTCACTCACGCATTTCGCTT"
Response given: 2.22

Challenge: Moving on to "TCTAGTTCGTCAAAGGTCACACACTCGAAATGCG"
Response given: 6.31

Challenge: Moving on to "ATACCAAGGTGATCGTGAGGTCGTTCATACTAAC"
Response given: 0.992

----------
Test system: PXR homodimer (NR concentration 270 nM)
test name: PBM binding z-score (relative to random genomic background probes); higher = stronger binding; sequences stand for … in GC…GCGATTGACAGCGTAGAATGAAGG
What PBM binding z-score was measured for each of the following?

Challenge: # query: PBM binding z-score of entry "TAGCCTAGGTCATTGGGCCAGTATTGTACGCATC"
Response given: -0.247

Challenge: Moving on to "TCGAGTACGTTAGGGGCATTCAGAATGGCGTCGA"
Response given: 5.78

Challenge: Moving on to "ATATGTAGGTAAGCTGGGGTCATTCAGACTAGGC"
Response given: 3.4

Challenge: Moving on to "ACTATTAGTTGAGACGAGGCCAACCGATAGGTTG"
Response given: 0.177

Challenge: Moving on to "CGTCCAAGGTCAAAGGTCAGTGACGAGATGACGG"
Response given: 2.08

Challenge: Moving on to "TCGTATAGGTAAATGCTAGGTGAAAGTCCGATCT"
Response given: -0.198

----------
Tested on: LXRa:RXRa (NR concentration 270 nM, RXRa partner concentration 90 nM)
test name: PBM binding z-score (relative to random genomic background probes); higher = stronger binding; sequences stand for … in GC…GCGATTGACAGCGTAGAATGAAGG
Criterion: PBM binding z-score meeting or surpassing 1. Met: condition met. Not met: condition not met.

Challenge: Determine whether measured PBM binding z-score meets or exceeds 1 for "ATCGAAAGGTCGTGAGGTGAGTCTACAGAAAGGC"
Response given: condition met

Challenge: Moving on to "ATCGAAAGGCCGTGAGGTGAGTATACAGAAAGGC"
Response given: condition not met

Challenge: Moving on to "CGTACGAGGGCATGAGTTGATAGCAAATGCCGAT"
Response given: condition not met

Challenge: Moving on to "ATACCAACGTGATCGTGAGGTCGTTGATACTAAC"
Response given: condition not met

Challenge: Moving on to "ATCGAAAGGGCGAAGGTGAGTATACCCACCCGAA"
Response given: condition not met

Challenge: Moving on to "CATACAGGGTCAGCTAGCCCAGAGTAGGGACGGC"
Response given: condition met

Challenge: Moving on to "GCGAGTGGGGCATCAGCAGGTTACCATAACTTAA"
Response given: condition not met

Challenge: Moving on to "CCTAGCAGGCCTATCTGGGTCACTCAAGGCTTGA"
Response given: condition not met

Challenge: Moving on to "TCGAGTAGCTTAGTCGGGGCATTCAGCCAACATA"
Response given: condition not met

Challenge: Moving on to "TCGAGTGGGTTAGTCGGGGCATTCAGCCAACATA"
Response given: condition not met

Challenge: Moving on to "TCGAGTAGGTTACCAGTGGGGCATTCAGCTTTCT"
Response given: condition met

Challenge: Moving on to "GATCCAGGGTCAAGGCCAGAGTACGCGTATTGAT"
Response given: condition met

Challenge: Moving on to "CCTACTGGGCCATTCAGAGGTCATTAATCATATG"
Response given: condition met

Challenge: Moving on to "ATCTAAAGGTCGTGAGGTGAGTATACAGAAAGGC"
Response given: condition met

Challenge: Moving on to "TAGCCTAGGTCATGCGGGCCACTATAGTGTCGGC"
Response given: condition met

Challenge: Moving on to "CGATCGAGGGCATGAGTTGATAGCAAATGCCGAT"
Response given: condition not met

Challenge: Moving on to "ATCTCTAGGTAACCAAGTTCAGAGAATGCCGAAC"
Response given: condition not met

Challenge: Moving on to "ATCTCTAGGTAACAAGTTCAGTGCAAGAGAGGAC"
Response given: condition not met

Challenge: Moving on to "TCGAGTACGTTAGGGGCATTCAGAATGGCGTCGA"
Response given: condition not met

Challenge: Moving on to "TAGCCTAGGTCATGGGCCGGTATACCACGCGAAC"
Response given: condition met

Challenge: Moving on to "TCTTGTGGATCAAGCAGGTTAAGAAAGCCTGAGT"
Response given: condition not met

Challenge: Moving on to "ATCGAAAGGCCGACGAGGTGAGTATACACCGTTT"
Response given: condition not met

Challenge: Moving on to "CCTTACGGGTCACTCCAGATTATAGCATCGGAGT"
Response given: condition met

Challenge: Moving on to "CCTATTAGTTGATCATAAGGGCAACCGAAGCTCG"
Response given: condition not met

Challenge: Moving on to "TCTTGTAGAGCAAGCAGGTTAAGAAAGCCTGAGT"
Response given: condition not met
